# assaySystem: Sodium-dependent serotonin transporter (Rattus norvegicus)
# Sequence (P31652 whole entry): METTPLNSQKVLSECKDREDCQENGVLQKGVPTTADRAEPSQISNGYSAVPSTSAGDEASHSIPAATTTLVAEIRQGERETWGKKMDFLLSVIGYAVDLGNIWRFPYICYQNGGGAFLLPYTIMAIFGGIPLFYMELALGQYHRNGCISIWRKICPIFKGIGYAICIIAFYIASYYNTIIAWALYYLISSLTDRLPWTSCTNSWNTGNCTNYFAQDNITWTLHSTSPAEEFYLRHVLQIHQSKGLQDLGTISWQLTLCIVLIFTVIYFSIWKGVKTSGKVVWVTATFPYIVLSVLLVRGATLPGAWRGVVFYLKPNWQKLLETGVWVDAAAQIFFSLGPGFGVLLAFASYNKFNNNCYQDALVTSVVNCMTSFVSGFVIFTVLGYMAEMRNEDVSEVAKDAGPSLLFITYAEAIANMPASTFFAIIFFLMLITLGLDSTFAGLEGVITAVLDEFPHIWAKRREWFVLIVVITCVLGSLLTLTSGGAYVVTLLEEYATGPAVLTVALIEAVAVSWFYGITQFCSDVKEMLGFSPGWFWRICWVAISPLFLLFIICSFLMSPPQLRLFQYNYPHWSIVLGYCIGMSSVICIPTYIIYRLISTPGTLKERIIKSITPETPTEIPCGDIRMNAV
# assayText: Inhibition of [3H]5-HT reuptake at SERT in rat brain synaptosomes
readoutKind: IC50 (µM)
Answers are plain numbers, in µM.

What measured IC50 is associated with CC(C)[C@@]1(O)C=C2[C@H](O)C[C@@H]3[C@](C)(CCC[C@@]3(C)C(=O)O)[C@H]2C[C@@H]1O [AQUILARABIETIC ACID B] on Sodium-dependent serotonin transporter (Rattus norvegicus)?
3.2

* * *

# Organism: Rattus norvegicus
# assayText: Inhibition of [3H]NE reuptake at NET in rat brain synaptosomes at 10 uM
# Format: subcellular
readoutKind: inhibition (%)
Answers are plain numbers, in %.

molecule: CC(C)[C@]1(O)CC[C@H]2C(=C[C@H](O)[C@@H]3[C@]2(C)CCC[C@@]3(C)C(=O)O)[C@H]1O
inhibition [%]: 37.2

molecule: C[C@]12CCC[C@@](C)(C(=O)O)[C@@H]1CC(=O)C1CC(=O)CC[C@@H]12 (some centres not stated)
inhibition [%]: 18.9

Could you tell me inhibition for each of these molecules? They are listed below.
1. CNCC[C@H](Oc1cccc2ccccc12)c1cccs1
2. CC(C)[C@]1(O)C=C2[C@H](O)C[C@@H]3[C@](C)(CCC[C@@]3(C)C(=O)O)[C@H]2C[C@H]1O
3. CC(C)[C@@]12CC[C@H]3C(=C[C@@H]4OC(=O)[C@]5(C)CCC[C@@]3(C)[C@@H]45)[C@@H]1O2
4. CC(C)[C@@]12C=C3[C@H](O)C[C@@H]4[C@](C)(CCC[C@@]4(C)C(=O)O)[C@H]3C[C@@H]1OC(C)(C)O2
5. CCO[C@H]1C[C@H]2C(=CC[C@@H]3[C@]2(C)CCC[C@@]3(C)C(=O)O)C=C1C(C)C

1. 81.4
2. 34.4
3. 8.1
4. 37.6
5. 13.4

* * *

# assayText: Inhibition of [3H]NE reuptake at NET in rat brain synaptosomes
# Assay type: subcellular
readoutKind: IC50 (µM)
Give bare numbers, in µM.

Consider the molecule CC(C)[C@@]1(O)C=C2[C@H](O)C[C@H]3[C@](C)(C(=O)O)CCC[C@]3(C)[C@@]2(O)CC1 and give its measured IC50.
0.91

* * *

# Species on record: Rattus norvegicus
# assayText: Inhibition of [3H]NE reuptake at NET in rat brain synaptosomes at 10 uM
# Type: subcellular
Where inhibition equals or exceeds 70%, the correct label is MET; where it does not, the label is NOT MET.

Would you say CC(C)[C@@]1(O)C=C2[C@H](O)C[C@H]3[C@](C)(C(=O)O)CCC[C@]3(C)[C@@]2(O)CC1 shows inhibition at minimum 70%?
MET

Hi, just wondering whether C=C(C)c1ccc2c(c1)[C@H](O)C[C@H]1[C@](C)(C(=O)O)CCC[C@]21C shows inhibition of 70% or higher.
MET

Hello, I need to know if CC(C)[C@@]1(O)C=C2[C@H](O)C[C@@H]3[C@](C)(CCC[C@@]3(C)C(=O)O)[C@H]2C[C@@H]1O has measured inhibition not below 70%. Thanks!
NOT MET

Given the entry CC(C)(O)[C@]1(O)CCC2=C(C(=O)C[C@H]3[C@](C)(C(=O)O)CCC[C@]23C)[C@H]1O , answer whether its inhibition meets or surpasses 70%.
NOT MET
